- target-under-test: AC1 (Homo sapiens)
- Construct: expressed in transfected cells
- assay-details: Inhibition of A23187-mediated (Ca2+-stimulated) cAMP accumulation in HEK cells stably expressing AC1
- Assay type: cell-based
- experimental-parameters: HEK293; 40 μM compound; read-out: AC1 Inhibition Percentage
- Method: HEK cells stably expressing AC1 were treated with inhibitors for 30 min, and subsequently incubated with 3 μM A23187 in the presence of 2 mM IBMX. Data represent the average and S.E.M. of at least three independent experiments. A23187 is a Ca2+ ionophore, which promotes Ca2+ binding to calmodulin in the cells and, subsequent stimulation of AC1. […]
Some compounds, each annotated with its measured inhibition at 40 µM.
Answer format: numeric, % implied, no suffix.

// solved cases for inhibition at 40 µM follow
[[record]]
compound = "COC(=O)CCCN(C/C=C/c1ccc(Cl)cc1)Cc1ccc(F)cc1"
value_unit = "%"
result_number = 70

[[record]]
compound = "CCOC(=O)c1ccc(/C=C/CN(CCc2c[nH]c3ccccc23)Cc2ccccc2)cc1"
value_unit = "%"
result_number = 99


Look at this compound and give its reported inhibition at 40 µM. CN(C/C=C/c1ccccc1)Cc1cccc2ccccc12 [Compound 1, reference compound]
83

Look at this compound and give its reported inhibition at 40 µM. COc1ccc2c(c1)C(c1ccccc1)CN(C/C=C/c1ccc(F)cc1)CC2 (centres unmarked)
91

Look at this compound and give its reported inhibition at 40 µM. COc1ccc2c(c1)C(c1ccc(Br)cc1)CN(C/C=C/c1ccc(Cl)cc1)CC2 (centres unmarked)
32

Look at this compound and give its reported inhibition at 40 µM. COC(=O)CCCN(C/C=C/c1ccc(C)cc1)Cc1ccc(F)cc1
64

Look at this compound and give its reported inhibition at 40 µM. CCOC(=O)c1ccc(/C=C/CN(CCCC(=O)OC)Cc2ccc(F)cc2)cc1
71

Look at this compound and give its reported inhibition at 40 µM. Ic1ccc(/C=C/CN(CCc2c[nH]c3ccccc23)Cc2ccccc2)cc1
93

---

- target-under-test: AC1 (Homo sapiens, UniProt Q08828)
- Construct: expressed in transfected cells
- Sequence (Q08828 whole entry): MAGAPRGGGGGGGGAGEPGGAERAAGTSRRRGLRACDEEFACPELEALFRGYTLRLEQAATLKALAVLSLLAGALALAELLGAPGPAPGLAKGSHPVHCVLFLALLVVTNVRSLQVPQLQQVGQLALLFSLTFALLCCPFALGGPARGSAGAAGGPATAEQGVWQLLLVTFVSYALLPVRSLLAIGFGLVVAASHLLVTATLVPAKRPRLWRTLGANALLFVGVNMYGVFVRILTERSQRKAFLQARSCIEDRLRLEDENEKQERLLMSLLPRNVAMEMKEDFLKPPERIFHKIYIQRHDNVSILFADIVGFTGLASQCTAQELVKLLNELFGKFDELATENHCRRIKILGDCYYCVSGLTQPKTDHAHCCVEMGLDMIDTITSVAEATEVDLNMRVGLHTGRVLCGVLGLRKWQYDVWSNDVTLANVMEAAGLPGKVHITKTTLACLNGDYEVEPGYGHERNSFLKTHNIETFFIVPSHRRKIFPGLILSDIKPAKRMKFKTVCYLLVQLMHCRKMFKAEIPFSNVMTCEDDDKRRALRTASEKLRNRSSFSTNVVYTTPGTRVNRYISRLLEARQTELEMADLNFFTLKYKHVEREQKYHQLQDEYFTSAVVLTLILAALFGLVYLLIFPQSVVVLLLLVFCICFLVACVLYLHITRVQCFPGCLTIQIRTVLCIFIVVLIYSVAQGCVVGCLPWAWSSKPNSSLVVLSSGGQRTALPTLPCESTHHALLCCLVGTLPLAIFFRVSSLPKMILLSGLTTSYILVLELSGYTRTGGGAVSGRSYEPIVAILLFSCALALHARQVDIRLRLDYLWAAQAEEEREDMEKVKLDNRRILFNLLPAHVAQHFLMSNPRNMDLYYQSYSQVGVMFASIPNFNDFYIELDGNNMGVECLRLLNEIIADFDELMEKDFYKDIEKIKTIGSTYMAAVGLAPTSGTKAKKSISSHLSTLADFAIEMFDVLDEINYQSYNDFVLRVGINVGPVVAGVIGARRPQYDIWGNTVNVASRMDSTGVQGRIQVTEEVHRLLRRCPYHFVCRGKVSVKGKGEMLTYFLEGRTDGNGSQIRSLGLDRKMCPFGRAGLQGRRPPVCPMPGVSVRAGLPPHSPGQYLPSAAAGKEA
- assay-details: Inhibition of A23187-mediated (Ca2+-stimulated) cAMP accumulation in HEK cells stably expressing AC1
- Format: cell-based
- experimental-parameters: HEK293; 4 μM compound; read-out: AC1 Inhibition Percentage
Some molecules, each annotated with its measured inhibition at 4 µM.
Param answer (str): number followed by unit.

// solved cases for inhibition at 4 µM follow
[[record]]
molecule = "FC(F)(F)c1ccc(/C=C/CN(CCc2c[nH]c3ccccc23)Cc2ccccc2)cc1"
target_under_test = "AC1 (Homo sapiens, UniProt Q08828)"
quantity_name = "inhibition at 4 µM"
result = "24%"

[[record]]
molecule = "CN(C/C=C/c1ccc(F)cc1)Cc1cccc2ccccc12"
target_under_test = "AC1 (Homo sapiens, UniProt Q08828)"
quantity_name = "inhibition at 4 µM"
result = "4%"

[[record]]
molecule = "COc1ccc2c(c1)C(c1ccc(Br)cc1)CN(C/C=C/c1ccc(C)cc1)CC2 (centres unmarked)"
target_under_test = "AC1 (Homo sapiens, UniProt Q08828)"
quantity_name = "inhibition at 4 µM"
result = "8%"

[[record]]
molecule = "COc1ccc2c(c1)C(c1ccccc1)CN(C/C=C/c1ccc(C(F)(F)F)cc1)CC2 (centres unmarked)"
target_under_test = "AC1 (Homo sapiens, UniProt Q08828)"
quantity_name = "inhibition at 4 µM"
result = "17%"

[[record]]
molecule = "Fc1ccc(/C=C/CN(CCc2c[nH]c3ccccc23)Cc2ccccc2)cc1"
target_under_test = "AC1 (Homo sapiens, UniProt Q08828)"
quantity_name = "inhibition at 4 µM"
result = "47%"

[[record]]
molecule = "CN(C/C=C/c1ccccc1)Cc1cccc2ccccc12 [Compound 1, reference compound]"
target_under_test = "AC1 (Homo sapiens, UniProt Q08828)"
quantity_name = "inhibition at 4 µM"
result = "4%"

[[record]]
molecule = "COc1ccc2c(c1)C(c1ccccc1)CN(C/C=C/c1ccc(I)cc1)CC2 (centres unmarked)"
target_under_test = "AC1 (Homo sapiens, UniProt Q08828)"
quantity_name = "inhibition at 4 µM"
result = "-3%"

[[record]]
molecule = "Cn1cc(CCN(C/C=C/c2ccccc2)Cc2ccccc2)c2ccccc21"
target_under_test = "AC1 (Homo sapiens, UniProt Q08828)"
quantity_name = "inhibition at 4 µM"
result = "-8%"

[[record]]
molecule = "CN(C/C=C/c1ccc(C(F)(F)F)cc1)Cc1cccc2ccccc12"
target_under_test = "AC1 (Homo sapiens, UniProt Q08828)"
quantity_name = "inhibition at 4 µM"
result = "30%"

[[record]]
molecule = "CCOC(=O)c1ccc(/C=C/CN(CCc2c[nH]c3ccccc23)Cc2ccccc2)cc1"
target_under_test = "AC1 (Homo sapiens, UniProt Q08828)"
quantity_name = "inhibition at 4 µM"
result = "36%"


Look at this molecule and give its reported inhibition at 4 µM. Fc1ccc(CN(C/C=C/c2ccccc2)CCc2c[nH]c3ccccc23)cc1
31%

Look at this molecule and give its reported inhibition at 4 µM. Cc1ccc(S(=O)(=O)N2CCCN(C/C=C/c3ccccc3)CC2)cc1
6%

Look at this molecule and give its reported inhibition at 4 µM. CCOC(=O)c1ccc(/C=C/CN(C)Cc2cccc3ccccc23)cc1
-40%
